- TEST NAME: small molecules captured by biotinylated probe aFGF10 – biochemical, small-molecule microarray, fluorescence 635/667, stem cell growth factor project, primary screen (AID 1071);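 note: score merges 667 nm spot intensity and signal to noise from triplicate slides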
- CONDITION DETAILS: higher = more signal
Recorded composite z-score, one value per entry.
PROPERTY: composite z-score

COC(=O)[C@@]1(Cc2ccc(F)cc2)[C@@H]2[C@@H](CC(=O)[C@H]2CC(=O)C(=O)N2CCCC2)CN1C(=O)c1ccccc1	0.56
CO[C@H]1O[C@H](CO)[C@@H](OC(=O)Nc2ccc(C(F)(F)F)cc2)[C@H](OC(=O)Nc2ccccc2)[C@H]1OC(=O)Nc1ccccc1	1.15
O=C1NC(=O)C2C1C=CC(C(O)CCc1ccccc1)N2Nc1ccccn1 (configuration not stated)	0.0386
CN1C(=O)C2C=CC(C(O)COCc3ccccc3)N(Nc3ccccc3)C2C1=O (configuration not stated)	0.389
COc1ccc([Si](C)(C)[C@@H]2[C@@H](CC(=O)N3Cc4ccccc4C[C@H]3CO)O[C@]3(C(=O)N(Cc4cccc(N5CCCCC5=O)c4)c4ccccc43)[C@H]2C)cc1	0.494
COc1ccc(C#Cc2ccc3c(c2)[C@]2(C(=O)N3)[C@H](c3ccc(OCCO)cc3)N3[C@H](c4ccccc4)[C@H](c4ccccc4)OC(=O)[C@H]3[C@@H]2C(=O)N2CCN(c3ncccn3)CC2)cc1	0.344
C=C(COC)C(=O)CC[C@H](OC(=O)c1ccccc1-c1ccccc1C(=O)O)c1ccc(CO)o1	0.738

====

- TEST NAME: growth of efflux-deficient E. coli DRC39 – strain DRC39, OD650, 24 h, E. coli filamentation inducers, primary screen (AID 1178);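 note: growth measured as culture turbidity by optical density at 650 nm; test concentration not given here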
- CONDITION DETAILS: E. coli DRC39 acrAB, higher = more signal, called active from +8 up or from −8 down
Threshold rule: z-score greater than or equal to -0.1 is 1 (yes); below that, 0 (no).

C[N+](C)(C)CCCC[C@@H]1NC(=O)[C@H]2C[C@@H](C(=O)NCCCCCCN)[C@@H](c3cccc(OCCO)c3)N2C1=O	0 (no)
C=CCC(OC(C)=O)[C@@H]1[C@@H](N(Cc2cccc3ccccc23)C(=O)c2ccc(C)cc2)c2cc(OCCCO)ccc2N1C(=O)c1ccc2ccccc2c1 (stereo not given in full)	1 (yes)
CCOC(=O)C[C@H]1[C@H](OC(=O)Cc2ccc3c(c2)OCO3)[C@@H](NC(=O)c2ccccc2)c2cc(OCCCO)ccc2N1C(=O)c1ccc2ccccc2n1	1 (yes)
C=C(CCCC)/C(=C/C[C@@H](OC(=O)c1ccncc1)c1ccccc1OCCO)c1cc(C(=O)OC)ccc1OC	1 (yes)

====

Recorded z-score, one value per entry.
- TEST NAME: growth of efflux-deficient E. coli DRC39 – strain DRC39, OD650, 48 h, E. coli filamentation inducers, primary screen (AID 1179);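 note: screen aims at cell division blockers that make cells filament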
- CONDITION DETAILS: E. coli DRC39 delta-acrAB growth, higher = more signal, called active from +8 up or from −8 down
PROPERTY: z-score

CCCCCCC#C[Si](O[C@H](c1ccccc1)c1cn(Cc2cccc(Cl)c2)nn1)(C(C)C)C(C)C	1.19
COC(=O)[C@@]1(Cc2ccc(OC)cc2)[C@H]2c3cc(C(=O)N4CCCC4)n(CCc4ccc(O)c(OC)c4)c3C[C@H]2CN1C(=O)c1ccccc1	-0.939
C=CC[C@@]1(C(=O)NCC(O)CO)N=C(c2ccc(OCCCO)cc2)O[C@@H]1c1ccccc1 (some centres not stated)	0.196
C=CCC(OC(C)=O)[C@@H]1[C@@H](N(Cc2cccc3ccccc23)C(=O)c2ccc(C)cc2)c2cc(OCCCO)ccc2N1C(=O)c1ccc2ccccc2c1 (some centres not stated)	1.8
NC(=O)[C@@H]1[C@H]2C(=O)O[C@H](c3ccccc3)[C@H](c3ccccc3)N2[C@H](c2ccccc2OCCO)[C@@]12C(=O)Nc1ccc(C#CCCO)cc12	-0.318
NC(=O)[C@H]1[C@@H]2C(=O)O[C@@H](c3ccccc3)[C@@H](c3ccccc3)N2[C@@H](c2ccc(O)cc2)[C@]12C(=O)Nc1ccc(C#CC3(O)CCCCCC3)cc12	-0.815
C=CC[C@@]1(C(=O)NCCN2CCOCC2)N=C(c2ccc(OCCCO)cc2)O[C@@H]1c1ccccc1	-0.483
COCC1=C([C@H](O)CCc2ccccc2)[C@H](CO)[C@@H]2C(=O)N(C)C(=O)[C@@H]2C1	1.65
O=C1C2C=CC(C(O)c3ccc(Br)cc3)N(Nc3ccccc3)C2C(=O)N1c1ccccc1 (configuration not stated)	-0.604
CCCC=C(CCC)[C@@H](NS(=O)(=O)c1cccc2cccnc12)c1ccc(C(=O)OC)cc1	-0.754
[N-]=[N+]=NCc1ccccc1C[C@@]1(C(=O)NCCN2CCOCC2)N=C(c2ccc(OCCCO)cc2)O[C@@H]1c1ccccc1CN=[N+]=[N-]	0.239
CCCCC(=C=CC[C@H](O)c1ccccc1OCCO)C[C@H](O)c1ccccn1	0.726
CC1=C2[C@@H](CCc3ccccc3)OB(O)C[C@@H]2[C@@H]2C(=O)C=CC(=O)[C@@H]2C1	-0.0244
COCCOC(=O)N1C(=O)[C@@]2(c3cc(C#CCNC(N)=O)ccc31)[C@H](c1ccc(OCCO)cc1)N1[C@H](c3ccccc3)[C@H](c3ccccc3)OC(=O)[C@H]1[C@@H]2C(=O)N1CCN(c2ncccn2)CC1	-0.327
COCCOC(=O)N1C(=O)[C@@]2(c3cc(C#CCC(C(=O)OC)C(=O)OC)ccc31)[C@H](C(=O)N1CCCCCCC1)[C@H]1C(=O)O[C@H](c3ccccc3)[C@H](c3ccccc3)N1[C@@H]2c1ccc(O)cc1	-0.86
CN(C)C(=O)[C@@]1(Cc2ccccc2N=[N+]=[N-])N=C(c2ccc(OCCCO)cc2)O[C@H]1c1ccccc1N=[N+]=[N-]	-0.421
C[C@H]1ON(c2ccccc2)[C@@H](c2ccccc2)[C@@H]1C(=O)N1C(=O)OC[C@@H]1c1ccccc1	-0.0075

====

- TEST NAME: JC-1 mitochondrial signal, unstimulated adipocytes – cell-based, JC-1 fluorescence, 3T3-L1 adipocytes, 24 h, 100 nL compound, profiling panel (AID 1168); note: test concentration not given here
- CONDITION DETAILS: JC-1 mitochondrial fluorescence, higher = more signal, called active from +8 up or from −8 down
Threshold rule: z-score greater than or equal to 0.3 is 1.0; below that, 0.0.

CC(C)CCC[C@@H](C)[C@H]1CC[C@@]2(C)C3=C(CC[C@]12C)[C@@]1(C)CC[C@H](OC(=O)c2ccc(N)cc2)C(C)(C)C1CC3 (stereo not given in full)	1.0
O=C1O[C@H](c2ccccc2)[C@H](c2ccccc2)N2[C@H]1[C@@H](C(=O)N1CCN(c3ncccn3)CC1)[C@]1(C(=O)Nc3ccc(C#CCCO)cc31)[C@H]2c1ccc(OCCO)cc1	1.0
CC(C)N1C(=O)c2ccccc2[C@](C)(C(=O)O)[C@@H]1c1ccc(CO)cc1	1.0
NCCCCCCNC(=O)[C@H]1C[C@H]2C(=O)N3CCC[C@H]3C(=O)N2[C@H]1c1ccc(O)cc1	0.0
C=C(COC)/C(=C/C[C@@H](OC(=O)c1ccncc1)c1cccc(OCCO)c1)c1cc(C(=O)OC)ccc1OC	0.0

====

Recorded z-score, one value per entry.
- TEST NAME: FRG1 expression reporter modulators in myotubes – cell-based, C2C12 myotubes, firefly/Renilla luciferase, luminescence, FRG1 inhibition for FSHD, primary screen (AID 1084)
- CONDITION DETAILS: FRG1 promoter luciferase, higher = more signal, called active from +8 up or from −8 down
PROPERTY: z-score

COc1ccccc1CN1C(=O)c2ccccc2[C@@]2(Cc3ccccc3N(C3CC3)C2=O)[C@@H]1c1ccc(CO)cc1	-0.223
O=C1C2C=CC(C(O)c3ccc(Br)cc3)N(Nc3ccccc3)C2C(=O)N1c1ccccc1 (configuration not stated)	-2.33
C=CCN1C(=O)[C@@]2(O[C@@H](CCn3cc([C@H](O)c4ccccc4)nn3)[C@H]([Si](C)(C)c3ccc(OC)cc3)[C@H]2C)c2cc(NC(=O)c3ccc(OC)cc3)ccc21	-1.36
COCCOC(=O)N1C(=O)[C@@]2(c3cc(C#CCCO)ccc31)[C@H](C(=O)N1CCc3cc(OC)c(OC)cc3C1)[C@H]1C(=O)O[C@H](c3ccccc3)[C@H](c3ccccc3)N1[C@@H]2c1ccc(OCCO)cc1	-0.561
O=[N+]([O-])c1ccc(C[n+]2ccc(-c3ccc(CO)cc3)cc2)o1	-0.721
CC(C)C[C@@H]1NC(=O)[C@@H]2C[C@H](C(=O)NCCCC[N+](C)(C)C)[C@H](c3cccc(OCCO)c3)N2C1=O	0.14
O=C1C2C=CC(C(O)c3ccccn3)N(Nc3ccccc3)C2C(=O)N1c1ccccc1 (configuration not stated)	1.29
O=C1NC(=O)C2C1C=CC(C(O)c1ccc3c(c1)OCO3)N2Nc1ccc(Cl)cc1Cl (configuration not stated)	1.28
COc1ccc([Si](C)(C)[C@@H]2[C@@H](CCO)O[C@]3(C(=O)N(Cc4ccccc4)c4ccc(N5CCCCC5=O)cc43)[C@H]2C)cc1	-4.38
COc1ccc([Si](C)(C)[C@@H]2[C@@H](CCO)O[C@]3(C(=O)N(Cc4ccccc4)c4ccc(N5C(=O)COc6ccccc65)cc43)[C@H]2C)cc1	-0.409
CC(C)N1CC=CC23O[C@@H]4C=CCOC(=O)[C@@H]4[C@H]2C(=O)N(CCCCCCO)[C@@H]3C1=O (some centres not stated)	0.213
COc1ccc(C(=O)Nc2ccc3c(c2)[C@]2(O[C@@H](CCO)[C@H]([Si](C)(C)c4ccc(OC)cc4)[C@H]2C)C(=O)N3Cc2ccccc2)cc1	-3.63
